Target: T1, recombinant soluble human IL-6R (human, UniProt P08887 20-365)
T1 sequence: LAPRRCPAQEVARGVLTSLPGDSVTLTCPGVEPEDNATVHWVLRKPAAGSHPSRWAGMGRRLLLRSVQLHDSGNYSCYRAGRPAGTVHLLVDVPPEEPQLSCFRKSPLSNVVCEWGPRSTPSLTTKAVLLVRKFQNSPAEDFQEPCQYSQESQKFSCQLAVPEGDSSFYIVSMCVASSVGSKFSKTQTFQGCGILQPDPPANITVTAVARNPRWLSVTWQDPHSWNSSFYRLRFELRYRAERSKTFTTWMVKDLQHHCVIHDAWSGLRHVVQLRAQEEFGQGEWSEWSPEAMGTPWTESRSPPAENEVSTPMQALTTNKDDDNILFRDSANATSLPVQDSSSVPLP
Test: cell-based or functional assay
# M1 cellular assay EC50 (20 ng/ml IL-6R, 100 ng/ml IL-6) per entry
Measured Parameter: M1 cellular assay EC50 (20 ng/ml IL-6R, 100 ng/ml IL-6) (nM)

{"Binder": "ID-114V (VHH, E. coli-produced cis/trans potent 5G9 derivative; also called 5G9 + F29S, V81L, N82Y, R105H; not shown: C-terminal FLAG-6xHis) VHH: EVQLVESGGGLVQAGGSTRLTCKASGSISNINSINVMAWYRQAPGKQRELVAIIGKGGGTNYADFVKGRFTISRDAAKNTLYLQMNSLKPEDTAVYYCYADYEDHDSPFNASWGQGTQVTVSS", "Recorded Measurement": 0.52}
{"Binder": "ID-122V (VHH, E. coli-produced trans-selective 5G9 derivative; also called 5G9 + F29S, Q47G, K89R, R105H, F109H; not shown: C-terminal FLAG-6xHis) VHH: EVQLVESGGGLVQAGGSTRLTCKASGSISNINSINVMAWYRQAPGKGRELVAIIGKGGGTNYADFVKGRFTISRDAAKNTVNLQMNSLRPEDTAVYYCYADYEDHDSPHNASWGQGTQVTVSS", "Recorded Measurement": 3.96}
{"Binder": "ID-123V (VHH, E. coli-produced trans-selective 5G9 derivative; E. coli version of ID-142V (lacks E1D); also called 5G9 + F29S, Q47G, N82Y, K89R, R105H, F109H; not shown: C-terminal FLAG-6xHis) VHH: EVQLVESGGGLVQAGGSTRLTCKASGSISNINSINVMAWYRQAPGKGRELVAIIGKGGGTNYADFVKGRFTISRDAAKNTVYLQMNSLRPEDTAVYYCYADYEDHDSPHNASWGQGTQVTVSS", "Recorded Measurement": 4.2}
{"Binder": "ID-112V (VHH, E. coli-produced cis/trans potent 5G9 derivative; also called 5G9 + F29S, Q47G, K89R, R105H; not shown: C-terminal FLAG-6xHis) VHH: EVQLVESGGGLVQAGGSTRLTCKASGSISNINSINVMAWYRQAPGKGRELVAIIGKGGGTNYADFVKGRFTISRDAAKNTVNLQMNSLRPEDTAVYYCYADYEDHDSPFNASWGQGTQVTVSS", "Recorded Measurement": 0.55}
